Tested on: BT-549 breast
assay: NCI tumour cell line growth inhibition, 48 h; in the data active = GI50 below about 0.43 µM; inactive = the rest
Allowed answers: yes (1) = active, no (0) = inactive

Please review the following examples before continuing.
Q) For this compound, state the assay outcome: CCC(C)C1=C(O)[N+]2([O-])Oc3ccc(C4=C(O)C(=O)C(c5ccc(O)cc5)=C(O)C4=O)cc3OC2(C(C)CC)C(=O)N1O (stereo not given)
A) no (0)

Q) For this compound, state the assay outcome: Clc1ccc2c(c1)N(C1CCCN(Cc3ccccc3)C1)c1ccccc1S2 (stereo not given)
A) no (0)

Q) For this compound, state the assay outcome: COc1ccc(S(=O)(=O)Nc2c(/C=C\c3cc(OC)c(OC)c(OC)c3)ccc(OC)c2O)cc1
A) yes (1)

Q) For this compound, state the assay outcome: C=C1C(=O)O[C@H]2[C@H]1CC/C(COC(=O)/C=C\C(=O)NCc1ccc(Cn3c(=O)sn(CCI)c3=O)cc1)=C\CC[C@@]1(C)O[C@@H]21
A) no (0)

Q) For this compound, state the assay outcome: COc1ccccc1[As]=[As]c1ccccc1OC (stereo not given)
A) yes (1)

Q) For this compound, state the assay outcome: CCN(CC)CCN1c2nc3ccccc3cc2Sc2cc3ccccc3nc21
A) no (0)

Moving on to another compound below.
Q) For this compound, state the assay outcome: Cn1cc(C2=C(c3cn(CCCN)c4ccccc34)C(=O)NC2=O)c2ccccc21
A) no (0)

* * *

System: SK-MEL-28 melanoma
assay: NCI tumour cell line growth inhibition, 48 h
property measured: GI50

Recorded results for 3 compounds are shown here.
Q) Suppose we examine the compound O=C(/C=C/c1ccccn1)c1ccc(OCc2nnc(-c3ccc(Cl)cc3)o2)cc1 ; what GI50 value has been reported?
A) 1.77 µM

Q) Suppose we examine the compound CCCCCCCCCCCCN=C(N)c1ccc(N2CCN(c3ccc(C(N)=NCCCCCCCCCCCC)cc3)CC2)cc1 ; what GI50 value has been reported?
A) 13.3 µM

Q) Suppose we examine the compound CCN(CC)CCN1c2nc3ccccc3cc2Sc2cc3ccccc3nc21 ; what GI50 value has been reported?
A) 1.8 µM

Quick one: give me GI50 for each item below, same order please.
1. COc1ccc(-c2cn(-c3ccc(OC)c(OC)c3)c(=O)[nH]2)cc1
2. [N-]=[N+]=NCCCn1c2c(c3ccc([N+](=O)[O-])cc3c1=O)C(=O)c1cc(-c3ccccc3)ccc1-2
3. O=C(Nc1cc(Cl)cc(Cl)c1)c1cccc(NC2=C(Cl)C(=O)N(Cc3ccccc3)C2=O)c1
4. COCCc1n(Cc2ccc3ccccc3c2)c2ccccc2[n+]1Cc1ccc2ccccc2c1
5. C/C=C/C(=O)[O-].C/C=C/C(=O)[O-].N.N.N.N.[Co+3].[O-][Cl+3]([O-])([O-])[O-]
6. CCN1C(=O)N(CC)C2C1NN=c1s/c(=C3\C(=O)N(C4CCCC4)c4ccccc43)c(=O)n12 (centres undefined)

A)
1. > 100 µM
2. > 100 µM
3. 54.7 µM
4. 0.567 µM
5. > 100 µM
6. 1.18 µM

* * *

System: OVCAR-3 ovarian
assay: NCI tumour cell line growth inhibition, 48 h
Where a SMILES comes first, the peptide text is derived from it. The star is where a group is joined. Cbz = O=C(OCc1ccccc1)*; Bn = c1ccc(C*)cc1
property measured: log10 TGI (log10 of the value in µM)
In our notation, the value equals log10 of TGI in µM.

Recorded results for 5 molecules are shown here.
Q) Can you look up log10 TGI on OVCAR-3 ovarian for COC1=C2CC(C)CC(OC)C(OC(=O)CN)[C@H](C)/C=C(\C)C(OC(N)=O)C(OC)/C=C\C=C(/C)C(=O)NC(=CC1=O)C2=O (stereo partly specified) ?
A) 0.47

Q) Can you look up log10 TGI on OVCAR-3 ovarian for O=C(CC1C(=O)Nc2ccccc2S1(=O)=O)Nc1ccc(Cl)cc1 (stereo unspecified) ?
A) 1.60

Q) Can you look up log10 TGI on OVCAR-3 ovarian for CS(=O)(=O)c1ccc2nc(-c3ccc(O)cc3)sc2c1 ?
A) 1.50

Q) Can you look up log10 TGI on OVCAR-3 ovarian for Cc1c2ccncc2c(C)c2c1[nH]c1ccc(Oc3ccccc3)cc12 ?
A) 0.89

Q) Can you look up log10 TGI on OVCAR-3 ovarian for Cn1c2ccccc2c2ccc3c(c21)C(=O)C(c1ccccc1)=CC3=O ?
A) 1.90

Quick one: give me log10 TGI for each item below, same order please.
1. COC(=O)C(Cc1ccc(O)cc1)NC(=O)C(COCc1ccccc1)NC(=O)OCc1ccccc1 (stereo unspecified) (Cbz-Ser(Bn)-Tyr-OMe; configuration not given here)
2. Cc1ccc(N=C2N=C(N3CC(C)OC(C)C3)c3ccccc32)cc1 (stereo unspecified)

A)
1: 1.50; 2: 1.87

Quick one: give me log10 TGI for each item below, same order please.
1. Cc1ccc(Cl)c(NS(=O)(=O)c2ccc(-c3cnc(C4CC4)o3)cc2)c1
2. CO[C@]12S[C@@H]3CCCC[C@@]31C(C)(C)C(=O)N2c1ccccc1
3. COc1cc(-c2nc3ccccc3o2)cc(CN2CCCCC2)c1O
4. CCCc1nc(Cl)c(Cl)c(Cl)n1

A)
1. 0.62
2. 1.59
3. 1.60
4. 1.27

* * *

Test system: TK-10 renal
assay: NCI tumour cell line growth inhibition, 48 h
So I've got a bunch of compounds here, and I need their TGI values.

Q) Can you look up TGI on TK-10 renal for O=C1OCC(c2ccc(Cl)cc2)=C1Cl ?
A) 60.6 µM

Quick one: give me TGI for each item below, same order please.
1. O=[N+]([O-])c1cc(N=Nc2c(O)ccc3cc(S(=O)(=O)O)ccc23)c(O)c([N+](=O)[O-])c1
2. OC1CCCC2CCC[N-]C12.OC1CCCC2CCC[N-]C12.[O]=[V][OH] (centres undefined)
3. NC(=O)c1ccc([N+](=O)[O-])cc1

A)
> 100 µM
> 100 µM
> 100 µM

Quick one: give me TGI for each item below, same order please.
1. CC(=O)/C(Br)=C/c1ccc(Br)o1
2. CCCCCCCCCCCCN=C(N)c1ccc(N2CCN(c3ccc(C(N)=NCCCCCCCCCCCC)cc3)CC2)cc1
3. O=C1NC2(CCCCC2)C(=O)N1CCN(CCCl)CCCl

A)
["17.9 µM", "> 50 µM", "> 25 µM"]

Quick one: give me TGI for each item below, same order please.
1. CCS(=O)c1c2cc(OC)ccc2nc2ccc(OC)cc12 (centres undefined)
2. CO[C@@]12C[C@@H](C)[C@]34O[C@H]3C[C@]3(C)O[C@]43CC1=C(C)C(=O)O2
3. CC1(C)C(=O)C(C)(C)C1=NNC(N)=S
4. O=C(N=c1nc(NC(=O)c2ccccc2)ss1)c1ccccc1
5. Cn1cc(C2=C(c3cn(CCCN)c4ccccc34)C(=O)NC2=O)c2ccccc21

A)
1: 10.3 µM; 2: > 100 µM; 3: > 100 µM; 4: > 100 µM; 5: 12.8 µM

Quick one: give me TGI for each item below, same order please.
1. N#C/C(=C1\OC(=N)C(c2ccccc2)C1=O)c1ccccc1 (centres undefined)
2. OCCCCn1cc(Cn2ncc3c(NCc4ccccc4)ncnc32)nn1
3. CCCCNC(=S)OCCC(C)CCCC(C)C (centres undefined)
4. O=C1c2ccccc2C(=O)c2c(NC(=O)C3CC3)ccc(NC(=O)C3CC3)c21
5. COc1cc2cc3c4c(cc(OC)c(OC)c4c2cc1OC)CCN3C
6. COc1ccccc1/C=C1\S/C(=N/Nc2nc(C)c(C(C)=O)s2)NC1=O
7. N#Cc1nc(C#N)c(Sc2ccccc2)c(Sc2ccccc2)c1Sc1ccccc1
8. COc1ccc(OC)c(/C=C2\CCc3ccccc3C2=O)c1

A)
68.5 µM
> 100 µM
> 100 µM
> 100 µM
> 23.4 µM
> 100 µM
3.43 µM
30.3 µM

Quick one: give me TGI for each item below, same order please.
1. O=C(Nc1cc(Cl)ccc1O)c1ccccc1Nc1ccnc(C(F)(F)F)c1
2. CNC(=O)c1c(F)cccc1Nc1nc(Nc2cc3c(cc2OC)CCN3C(=O)CN(C)C)nc2[nH]ccc12
3. CC(C)OC/N=C(/N)NC#N
4. [N-]=[N+]=NCCCn1c2c(c3ccc([N+](=O)[O-])cc3c1=O)C(=O)c1cc(-c3ccccc3)ccc1-2

A)
1. 16.8 µM
2. 11.8 µM
3. > 100 µM
4. > 100 µM

Quick one: give me TGI for each item below, same order please.
1. Nc1nc(N)c2ncn(CCOC(c3ccccc3)P(=O)(O)O)c2n1 (centres undefined)
2. Nc1cccc(OCC2CCCN3CCCCC23)c1 (centres undefined)
3. CC/C(Cl)=N\OC(=O)Nc1ccc(OC)c(C)c1
4. CC1(C)c2ccccc2N2O[C@@H]3C(=O)N(c4ccccc4)C(=O)[C@@H]3C21c1ccccc1 (some centres undefined)
5. COC(=O)CC(C(C(=O)OC)C(=O)OC)N1C(=O)OC(c2ccccc2)C1c1ccccc1 (centres undefined)
6. CC[C@H](C)[C@H](NC(=O)[C@H]1CCCCN1C)C(=O)N(C)[C@H](C[C@@H](OC(C)=O)c1cccc(C(=O)N[C@@H](Cc2ccccc2)C[C@H](C)C(=O)O)n1)C(C)C
7. CC1=C(C(=O)Nc2ccc(F)c(Cl)c2)C(c2cccc(Oc3ccccc3)c2)NC(=S)N1 (centres undefined)
8. O=[N+]([O-])c1cc(-[n+]2cc([O-])on2)ccc1Cl

A)
["> 100 µM", "34.1 µM", "41.7 µM", "> 100 µM", "> 100 µM", "> 25 µM", "> 50 µM", "67.2 µM"]

Quick one: give me TGI for each item below, same order please.
1. O=S(=O)(O)c1ccc2c(N=Nc3ccc(S(=O)(=O)O)c4ccccc34)c(O)c(S(=O)(=O)O)cc2c1
2. NCCCNc1nc2ccccc2c2c(=O)c3cccc(Cl)c3sc12

A)
> 100 µM
3.95 µM

Quick one: give me TGI for each item below, same order please.
1. NS(=O)(=O)c1ccc(NC(=O)C2C(=O)C(=O)N(c3ccc(S(N)(=O)=O)cc3)C2=O)cc1 (centres undefined)
2. Cc1cc(S(=O)(=O)Nc2nnc3ccccn23)c(S)cc1Cl
3. COc1cc(-c2nc3ccccc3o2)cc(CN2CCCCC2)c1O
4. c1ccc(Cn2c(-c3ccc(-c4ccccc4)cc3)cc3ccccc32)cc1
5. C=C1C(=O)O[C@H]2[C@H]1CC/C(COC(=O)/C=C\C(=O)NCc1ccc(Cn3c(=O)sn(CCI)c3=O)cc1)=C\CC[C@@]1(C)O[C@@H]21

A)
1: > 100 µM; 2: > 100 µM; 3: > 85.8 µM; 4: > 100 µM; 5: 4.35 µM
